Target: GAK (Homo sapiens, UniProt O14976)
Construct: catalytic domain-containing construct
Sequence (O14976 whole entry, the tested form may be a part): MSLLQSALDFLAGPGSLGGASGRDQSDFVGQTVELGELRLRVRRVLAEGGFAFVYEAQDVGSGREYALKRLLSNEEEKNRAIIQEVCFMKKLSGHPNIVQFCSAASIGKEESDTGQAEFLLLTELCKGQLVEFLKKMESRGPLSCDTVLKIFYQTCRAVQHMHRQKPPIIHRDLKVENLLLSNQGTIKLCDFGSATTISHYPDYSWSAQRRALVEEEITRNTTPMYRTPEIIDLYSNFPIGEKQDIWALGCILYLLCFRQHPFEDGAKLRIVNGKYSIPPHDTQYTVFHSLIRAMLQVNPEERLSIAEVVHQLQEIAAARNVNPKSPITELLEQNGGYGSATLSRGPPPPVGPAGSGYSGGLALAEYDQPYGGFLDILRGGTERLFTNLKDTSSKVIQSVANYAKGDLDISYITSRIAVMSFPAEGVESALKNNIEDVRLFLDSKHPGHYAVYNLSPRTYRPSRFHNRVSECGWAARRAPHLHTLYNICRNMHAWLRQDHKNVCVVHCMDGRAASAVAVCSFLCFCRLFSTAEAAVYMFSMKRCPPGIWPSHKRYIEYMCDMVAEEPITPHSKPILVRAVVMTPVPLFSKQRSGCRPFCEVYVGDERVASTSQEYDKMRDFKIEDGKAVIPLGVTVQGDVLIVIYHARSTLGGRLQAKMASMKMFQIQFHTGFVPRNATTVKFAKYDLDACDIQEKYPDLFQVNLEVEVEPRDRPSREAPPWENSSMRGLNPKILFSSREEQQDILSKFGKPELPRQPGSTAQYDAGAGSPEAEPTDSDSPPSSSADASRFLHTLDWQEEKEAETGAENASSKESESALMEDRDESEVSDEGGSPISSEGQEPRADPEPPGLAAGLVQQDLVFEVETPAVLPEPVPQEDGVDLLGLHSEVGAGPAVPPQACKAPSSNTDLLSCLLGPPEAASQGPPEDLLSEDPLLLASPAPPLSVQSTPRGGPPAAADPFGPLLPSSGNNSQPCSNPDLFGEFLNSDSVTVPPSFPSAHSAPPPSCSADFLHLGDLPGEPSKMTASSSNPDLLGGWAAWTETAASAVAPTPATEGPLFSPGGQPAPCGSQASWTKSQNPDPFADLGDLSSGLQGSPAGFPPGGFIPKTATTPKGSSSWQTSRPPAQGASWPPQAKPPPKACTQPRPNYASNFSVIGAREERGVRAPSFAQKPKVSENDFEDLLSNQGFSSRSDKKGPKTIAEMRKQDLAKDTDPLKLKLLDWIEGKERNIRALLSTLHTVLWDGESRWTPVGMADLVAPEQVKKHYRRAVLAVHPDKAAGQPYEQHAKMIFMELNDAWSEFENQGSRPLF
Experiment: biochemical
Design: Thermal shift assay (DSF, SYPRO Orange), 2 uM kinase domain, mean delta Tm of triplicates versus DMSO
Details: read-out: GAK
Each record here notes measured ΔTm at 12.5 µM.

molecule	ΔTm at 12.5 µM
CCn1c(C(=O)N(C2CC2)C2CC2)cc2c3c(ncn3C)c(Nc3cc(C)n(C)n3)nc21	1.58 °C
Cc1cnc(NC(=O)Nc2cc(Br)c(C)cc2OC[C@@H]2CNCCO2)cn1	-0.263 °C
O=c1sn(-c2cccc3ccccc23)c(=O)n1Cc1ccccc1	-0.487 °C
N#CCNC(=O)c1ccc(-c2ccnc(Nc3ccc(N4CCOCC4)cc3)n2)cc1	7.03 °C
CCn1c(=O)c(-c2cc[nH]n2)cc2c(C)nc(N)nc21	0.99 °C
COc1ncc(-c2ccc3nccc(-c4ccnnc4)c3c2)cc1NS(=O)(=O)c1ccc(F)cc1F	3.33 °C
CNC(=O)c1cc(Oc2ccc(NC(=O)Nc3cc(C(C)(C)C)nn3-c3ccc4ncccc4c3)c(F)c2)ccn1	9.94 °C
Cc1cc(C(C)Nc2ccccc2)c2nc(N3CCOCC3)cc(=O)n2c1 (stereo not drawn)	-0.347 °C
N#CC1(c2ccc(NC(=O)c3cccnc3NCc3ccncc3)cc2)CCCC1	-0.113 °C
Cc1cc(Nc2cc(CN3CCOCC3)c3nc(C)c(Cc4ccc(Cl)cc4F)n3n2)n[nH]1	0.333 °C
CN1CCN(c2ccc3nc(-c4c(N)c5c(F)cccc5[nH]c4=O)[nH]c3c2)CC1	-0.0367 °C
CCc1cc(Nc2nccc(-c3c(-c4ccc(OC)c(C(=O)Nc5c(F)cccc5F)c4)nc4ccccn34)n2)c(OC)cc1N1CCC(N2CCN(S(C)(=O)=O)CC2)CC1 [GSK1904529A]	0.227 °C
COc1cc2c(Oc3ccc4[nH]c(C)cc4c3F)ncnc2cc1OCCCN1CCCC1	0.667 °C
Nc1nccc(-c2c(-c3ccc(F)cc3)ncn2C2CCCCC2)n1	6.13 °C
C=CCN(/C=C1/C(=O)O[C@H](COC)[C@@]2(C)C1=C(O)C(=O)C1=C2[C@H](OC(C)=O)C[C@]2(C)C(=O)CC[C@@H]12)CC=C	0.82 °C
Nc1cc(C(F)(F)F)c(-c2cc(N3CCOCC3)nc(N3CCOCC3)n2)cn1	-0.927 °C
COc1cc2nccc(Oc3ccc(NC(=O)Nc4cc(C)on4)c(Cl)c3)c2cc1OC	6.98 °C
CNC(=O)c1ccccc1Sc1ccc2c(/C=C/c3ccccn3)n[nH]c2c1	0.75 °C
COc1cc(Nc2ncc(F)c(Nc3ccc4c(n3)NC(=O)C(C)(C)O4)n2)cc(OC)c1OC	3.48 °C
S=C(NCc1ccc2c(c1)OCO2)N1CCN(c2ncnc3c2oc2ccccc23)CC1	0.377 °C
Cc1c(Cn2c(C)nc3c(C(=O)O)cc(N4CCOCC4)cc32)cccc1C(F)(F)F	-0.483 °C
COc1cc(N2CCC(N3CCN(C)CC3)CC2)ccc1Nc1ncc(Cl)c(Nc2ccccc2P(C)(C)=O)n1	9.03 °C
CNC(=O)c1cc(Oc2ccc(NC(=O)Nc3ccc(Cl)c(C(F)(F)F)c3)c(F)c2)ccn1	5.87 °C
CCOc1cc2ncc(C#N)c(Nc3ccc(OCc4ccccn4)c(Cl)c3)c2cc1NC(=O)/C=C/CN(C)C	2.52 °C
COc1cc(OC2CCN(C)CC2)ccc1Nc1ncc2c(n1)n(C1CCCC1)c(=O)n2C	6.52 °C
CN(C)C[C@@H]1CCn2cc(c3ccccc32)C2=C(C(=O)NC2=O)c2cn(c3ccccc23)CCO1	1.03 °C
COc1cc(Nc2ncc3c(n2)-c2ccc(Cl)cc2C(c2c(F)cccc2OC)=NC3)ccc1C(=O)O	-0.237 °C
C[C@@H](Oc1cc(-c2cnn(C3CCNCC3)c2)cnc1N)c1c(Cl)ccc(F)c1Cl	-0.44 °C
CCc1cnn2c(NCc3ccc[n+]([O-])c3)cc(N3CCCC[C@H]3CCO)nc12	-1.13 °C
Cc1cnc(Nc2ccc(F)cc2Cl)nc1-c1c[nH]c(C(=O)N[C@H](CO)c2cccc(Cl)c2)c1 [VX-11E]	-1.45 °C
